B1: MED27 (parent)
chain: YNENVYTEDGKLDIWSKSNYQVFQ

variants of: B1; assay: protein stability index of a GFP-peptide fusion (GPS, HEK-293T) (PSI 1-6); higher = more stable; conditions: c terminus: a fixed tail appended;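 note: lentivirally expressed fusions sorted by FACS into six bins by GFP to DsRed ratio, PSI derived from sequencing read proportions per bin multiplied by bin number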
measurement-label: protein stability index
Answer as a number with no unit attached.

protein stability index in this record for Y6S : 3.26

protein stability index in this record for T7V : 2.05

protein stability index in this record for K11M : 2.32

protein stability index in this record for E8Q : 1.82

protein stability index in this record for V5R : 2.25

protein stability index in this record for T7W : 1.07

protein stability index in this record for Y20K : 2.76

protein stability index in this record for Q21H : 2.64

protein stability index in this record for G10Q : 2.5

protein stability index in this record for Q24V : 1.43

protein stability index in this record for Y20M : 1.92
